# tested.target: T1, T11 (Tn-MUC1) (PAPGSTAPPAHGVT(α-GalNAc)SAPDT(α-GalNAc)RPAPG-OH)
# T1 peptide: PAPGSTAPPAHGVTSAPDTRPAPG
# assay: glycopeptide array
Listing: EC50 of selected binders
Value expressed in µg/mL; do not type the unit.

Answered cases to consult:
1. 162 (antibody, V domains shown) VH: QVQLVQSGAEVKKPGASVMLSCKASGYIFTSYYIQWVRQAPGQGLEWMGVVNPYDGSTNYAQKFQGRVTITRDTSTSTVFMELSSLRSEDTAVYYCARDNMLGHVIFDFWGQGTLVTVSS
0.063
2. 66 (antibody, V domains shown) VH: QVQLVQSGAEVKKPGASVRVSCKASGYTFTNYYIHWVRQAPGHGLTWMGVINPFDSSTDYAQKFQGRVTMTRDTSTSTVYMDLSSLRSEDTAVYYCARDYMRGHVVFDYWGQGTLVTVSS
0.138
3. 114 (antibody, V domains shown) VH: QVQLVQSGAEMKKPGASVTVSCKASGYTFTNYYIQWVRQAPGQGLEWMGVINPYDGSTNYAQRFQGRVTLTRDTTTTTVNMELSGLRSEDTAVYYCARDYMIGYVVFDFWGQGTLVTVSS
0.09

API: the following record is the query input.
The recorded EC50 for 190 (antibody, V domains shown) VH: QVQLVQSGAEVKKPGASVKVSCKASGYAFTNYYIHWVRQAPGHGLTWMGVINPFDSSTDFAQKFQGRLTMTRDTSTSTVYMDLSSLRSEDTAVYYCARDYMRGHVVFDNWGQGTLVTVSS is 0.122
